test system: Lef1; assay: LEF1 mRNA expression (RT-PCR) in Human Follicle Dermal Papilla Cells (HFDPC); type: cell-based; conditions: 24 h incubation, normalized to GAPDH, relative to untreated calibrator (vehicle = 1)
Label false if Lef1 fold of change mRNA expression falls below 2; label true in every other case.

// known answers, use as guide
[[record]]
compound = "COC(=O)c1cc(-c2ccccc2)sc1NC(=O)CC1SC(=N)NC1=O (stereo not drawn)"
group = "false"

[[record]]
compound = "CCOC(=O)c1c(NC(=O)CC2SC(=N)NC2=O)sc(Br)c1C (stereo not drawn)"
group = "true"

[[record]]
compound = "N=C1NC(=O)C(CC(=O)Nc2scc(C3CCC3)c2C(N)=O)S1 (stereo not drawn)"
group = "false"

[[record]]
compound = "CCOC(=O)c1c(NC(=O)CC2SC(=N)NC2=O)sc(C)c1-c1ccccc1 (stereo not drawn)"
group = "false"

[[record]]
compound = "CCOC(=O)c1c(NC(=O)CC2SC(=N)NC2=O)sc(C)c1C (stereo not drawn)"
group = "true"

[[record]]
compound = "CCOC(=O)c1c(C2CC2)csc1NC(=O)CC1SC(=N)NC1=O (stereo not drawn)"
group = "false"

[[record]]
compound = "COC(=O)c1ccsc1NC(=O)CC1SC(=N)NC1=O (stereo not drawn)"
group = "true"

[[record]]
compound = "COC(=O)c1c(NC(=O)CC2SC(=N)NC2=O)sc(C)c1C (stereo not drawn)"
group = "true"


Below: the item to evaluate.
Please indicate if the recorded Lef1 fold of change mRNA expression for O=S(=O)(NC1CCNCC1)c1cc(S(=O)(=O)c2ccccc2)ccc1C(F)(F)F [WAY-316606, reference compound] meets or exceeds 2. true

// provenance: patent US11793792B2
